system: MDA-MB-453; assay: Payload cellular killing, 2D; format: cell-based, human; conditions: Homo sapiens; Table 28, payload, MDA-MB-453, 2D (HER3 +++)
Each record here notes measured pEC50.
# pEC50 is unitless: minus log10 of the molar concentration; print number only

* CCc1c2c(nc3ccc(O)cc13)-c1cc3c(c(=O)n1C2)COC(=O)[C@]3(O)CC [SN-38, reference compound] | 8.62

## Input Missing value: pEC50, MDA-MB-453, entry CC[C@@]1(O)C(=O)OCc2c1cc1n(c2=O)Cc2c-1nc1cc(F)c(C)c3c1c2[C@@H](N)CC3 [Exatecan, reference compound] . Fill in?
## Output 9.30

All values here come from patent US20250135026A1.
